Cited source for all entries: PubChem BioAssay AID1159580

Assay: chemical genetic growth profiling, strain panel (AID 1159580);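 also: tested at 20 µM; growth read once vehicle control cultures reached saturation at 30 °C; 1 = growth at the plate median or of vehicle wells; lower values mean less growth of the strain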
Details: S. cerevisiae deletion strains, growth OD, locus YIR030C, strain dcg1
The whole screen tested about 5,500 compounds, of which about 2,000 (36%) were called active. Inconclusive results (about 18%) are left out. Rule as the data show it: active = normalized growth mostly below about 0.91 (no sharp cut-off); inconclusive = no clear call, values can overlap the other calls; inactive = mostly above about 0.92. The list shows a part of the results.
// one of t = active, f = inactive, no free text

### Prompt So what was the verdict on NC(C(=O)O)C(O)C(=O)O (configuration not stated) in this test?
### Response f

### Prompt So what was the verdict on Oc1c(Cl)cc(Cl)c(Cl)c1Cc1c(O)c(Cl)cc(Cl)c1Cl in this test?
### Response t

### Prompt So what was the verdict on O=C(O)CCCCCCCC(=O)O in this test?
### Response f

### Prompt So what was the verdict on CC(C)(S)[C@@H](N)C(=O)O in this test?
### Response f

### Prompt So what was the verdict on CN1CCC[C@@H]1CCO[C@](C)(c1ccccc1)c1ccc(Cl)cc1 in this test?
### Response f

### Prompt So what was the verdict on CCCCCCCCCCCC(=O)OCC(COP(=O)(O)OCC(O)COP(=O)(O)OCC(COC(=O)CCCCCCCCCCC)OC(=O)CCCCCCCCCCC)OC(=O)CCCCCCCCCCC (configuration not stated) in this test?
### Response f

### Prompt So what was the verdict on NCCCCCC(=O)O in this test?
### Response f

### Prompt So what was the verdict on Clc1ccc(COC(Cn2ccnc2)c2ccc(Cl)cc2Cl)c(Cl)c1 (configuration not stated) in this test?
### Response t

### Prompt So what was the verdict on Cc1oncc1C(=O)Nc1ccc(C(F)(F)F)cc1 in this test?
### Response f

### Prompt So what was the verdict on Cc1nnc(NS(=O)(=O)c2ccc(N)cc2)s1 in this test?
### Response f

### Prompt So what was the verdict on O=C(O)CCC1NCC2CC1CN1CCCCC21 (configuration not stated) in this test?
### Response f

### Prompt So what was the verdict on NCCCC(=O)O in this test?
### Response f

----------
Test: chemical genetic growth profiling, strain panel (AID 1159580);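 also: tested at 20 µM; growth read once vehicle control cultures reached saturation at 30 °C; 1 = growth at the plate median or of vehicle wells; lower values mean less growth of the strain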
Settings: S. cerevisiae deletion strains, growth OD, locus YML016C, strain PPZ1, active compounds read low
In all, about 5,500 compounds went through this assay and about 2,000 (36%) were called active. Inconclusive results (about 18%) are left out. The list shows a part of the results.
Task for the reader: assign each of the following molecules its reported normalized growth.
No unit in the answer, please; the number alone is enough.

Per the records, this molecule ( CCCCCCCCCCCC(=O)OCC(COP(=O)(O)OCC(O)COP(=O)(O)OCC(COC(=O)CCCCCCCCCCC)OC(=O)CCCCCCCCCCC)OC(=O)CCCCCCCCCCC (centres undefined) ) has normalized growth equal to 0.792

Per the records, this molecule ( NCC[C@@H](O)C(=O)N[C@@H]1C[C@H](N)[C@@H](O[C@H]2O[C@H](CN)[C@@H](O)[C@H](O)[C@H]2O)[C@H](O)[C@H]1O[C@H]1O[C@H](CO)[C@@H](O)[C@H](N)C1O (some centres undefined) ) has normalized growth equal to 1.01

Per the records, this molecule ( CC(C)c1nc(N(C)S(C)(=O)=O)nc(-c2ccc(F)cc2)c1/C=C/[C@@H](O)C[C@@H](O)CC(=O)O ) has normalized growth equal to 0.999

Per the records, this molecule ( Fc1ccc([C@@H]2CCNC[C@H]2COc2ccc3c(c2)OCO3)cc1 ) has normalized growth equal to 1.01
